Tested on: Acinetobacter baumannii
Experiment: Inhibition of biofilm formation in Acinetobacter baumannii ATCC 15308 at 0.05 mM incubated for 24 hrs by crystal violet method relative to control
Type: functional
Conditions: ATCC 15308, 24 h
recorded.metric: inhibition at 50 µM (%)
Write the number in % without appending the unit.

### Prompt Can you look up the measured inhibition at 50 µM of CCCCCCCCCc1ccccc1C(=O)NS(=O)(=O)c1cccc(F)c1 for me?
### Response 27

### Prompt Same thing, different compound: CCCCCCCCCc1ccccc1C(=O)NS(=O)(=O)c1ccc([N+](=O)[O-])cc1
### Response 50

### Prompt Another compound to check: CCCCCCCCCc1ccccc1C(=O)NS(=O)(=O)c1ccc(F)cc1
### Response 25

### Prompt Next: CCCCCCCCCc1ccccc1C(=O)NS(=O)(=O)c1ccc(Br)cc1
### Response 8

### Prompt What do you get for CCCCCCCCCc1ccccc1C(=O)NS(=O)(=O)c1cccc(Br)c1 ?
### Response 1.5

### Prompt Now try CCCCCCCCC/C=C\C(=O)O .
### Response 38

### Prompt Now the same for CCCCCCCCCc1ccccc1C(=O)NS(=O)(=O)c1ccc(OC)cc1
### Response 41

### Prompt CCCCCCCCCc1ccccc1C(=O)NS(=O)(=O)c1ccccc1F , same question.
### Response 27

### Prompt Next entry: CCCCCCCCCc1ccccc1C(=O)NS(=O)(=O)c1ccccc1Br
### Response 30
